- ASSAYED_TARGET: Sphingomyelin Synthase 2 (SMS2) (Homo sapiens)
- Construct: made in house; used as homogenate
- Sequence (Q8NHU3 1-365): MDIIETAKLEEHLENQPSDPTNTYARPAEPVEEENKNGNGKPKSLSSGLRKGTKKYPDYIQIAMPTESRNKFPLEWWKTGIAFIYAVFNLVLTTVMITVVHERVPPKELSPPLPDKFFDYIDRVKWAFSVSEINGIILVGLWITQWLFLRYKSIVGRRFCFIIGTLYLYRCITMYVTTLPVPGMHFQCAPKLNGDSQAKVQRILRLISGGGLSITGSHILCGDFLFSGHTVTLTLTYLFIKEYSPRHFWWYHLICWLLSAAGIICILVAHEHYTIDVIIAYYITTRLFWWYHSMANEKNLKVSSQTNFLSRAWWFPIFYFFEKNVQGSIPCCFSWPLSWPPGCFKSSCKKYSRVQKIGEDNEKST
- PROTOCOL_DETAILS: In vitro inhibition of sphingomyelin synthase 2, HPLC fluorogenic quantitative detecting method (C6-NBD-ceramide to C6-NBD-SM, SMS2 high-expressed insect cell homogenate)
- Format: biochemical
- TEST_SETTINGS: at 10 μM; read-out: inhibition rate
I'd be grateful if you could share measured inhibition at 10 µM for these entries.
Write the number in % without appending the unit.

**Query** Indicate its recorded inhibition at 10 µM; the molecule in question is `O=C(Nc1cccnc1)c1ccccc1OCc1cccc(C(F)(F)F)c1`
**Result** 10

**Query** Using known records, supply inhibition at 10 µM for `COc1ccc(C(=O)Nc2cccnc2)c(OCc2ccccc2Cl)c1`
**Result** 13.3

**Query** For the molecule `O=C(Nc1cccnc1)c1ccccc1OCc1ccccc1OCCCCCCCl` , give its reported inhibition at 10 µM.
**Result** 91.5

**Query** Look up and state reported inhibition at 10 µM for `COCCOc1ccc(Cl)cc1COc1ccccc1C(=O)Nc1cccnc1`
**Result** 54.2
